PI3Kα (Homo sapiens): reported pIC50 for various molecules.
Sequence (P42336 whole entry): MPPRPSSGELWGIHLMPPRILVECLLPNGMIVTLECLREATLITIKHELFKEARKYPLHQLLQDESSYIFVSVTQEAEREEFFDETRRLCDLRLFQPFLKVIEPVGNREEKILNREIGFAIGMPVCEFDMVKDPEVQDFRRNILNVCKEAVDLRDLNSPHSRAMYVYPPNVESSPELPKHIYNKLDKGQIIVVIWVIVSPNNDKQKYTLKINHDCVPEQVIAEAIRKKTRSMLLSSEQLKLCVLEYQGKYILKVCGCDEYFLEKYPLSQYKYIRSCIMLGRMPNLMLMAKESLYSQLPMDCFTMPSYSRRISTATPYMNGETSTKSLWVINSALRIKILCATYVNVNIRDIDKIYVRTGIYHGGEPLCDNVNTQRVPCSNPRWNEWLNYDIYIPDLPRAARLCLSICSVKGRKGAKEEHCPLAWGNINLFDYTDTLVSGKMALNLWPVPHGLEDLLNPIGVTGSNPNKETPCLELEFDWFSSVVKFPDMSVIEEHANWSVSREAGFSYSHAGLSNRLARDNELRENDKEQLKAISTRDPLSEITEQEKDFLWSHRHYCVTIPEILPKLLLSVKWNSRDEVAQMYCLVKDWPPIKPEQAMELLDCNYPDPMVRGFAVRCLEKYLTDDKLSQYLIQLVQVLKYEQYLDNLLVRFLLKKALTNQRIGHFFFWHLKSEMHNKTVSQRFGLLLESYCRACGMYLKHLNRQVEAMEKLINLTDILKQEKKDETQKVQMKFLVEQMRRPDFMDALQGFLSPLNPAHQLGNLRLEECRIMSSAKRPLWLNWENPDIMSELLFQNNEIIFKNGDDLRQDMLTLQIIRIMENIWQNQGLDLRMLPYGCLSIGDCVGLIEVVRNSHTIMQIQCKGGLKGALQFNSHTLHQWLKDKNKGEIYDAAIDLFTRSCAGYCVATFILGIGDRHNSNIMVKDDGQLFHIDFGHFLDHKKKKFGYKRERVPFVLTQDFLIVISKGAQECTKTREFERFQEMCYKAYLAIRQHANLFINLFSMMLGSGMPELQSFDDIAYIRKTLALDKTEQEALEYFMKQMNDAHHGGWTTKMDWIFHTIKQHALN
Sequence (P27986 whole entry partner): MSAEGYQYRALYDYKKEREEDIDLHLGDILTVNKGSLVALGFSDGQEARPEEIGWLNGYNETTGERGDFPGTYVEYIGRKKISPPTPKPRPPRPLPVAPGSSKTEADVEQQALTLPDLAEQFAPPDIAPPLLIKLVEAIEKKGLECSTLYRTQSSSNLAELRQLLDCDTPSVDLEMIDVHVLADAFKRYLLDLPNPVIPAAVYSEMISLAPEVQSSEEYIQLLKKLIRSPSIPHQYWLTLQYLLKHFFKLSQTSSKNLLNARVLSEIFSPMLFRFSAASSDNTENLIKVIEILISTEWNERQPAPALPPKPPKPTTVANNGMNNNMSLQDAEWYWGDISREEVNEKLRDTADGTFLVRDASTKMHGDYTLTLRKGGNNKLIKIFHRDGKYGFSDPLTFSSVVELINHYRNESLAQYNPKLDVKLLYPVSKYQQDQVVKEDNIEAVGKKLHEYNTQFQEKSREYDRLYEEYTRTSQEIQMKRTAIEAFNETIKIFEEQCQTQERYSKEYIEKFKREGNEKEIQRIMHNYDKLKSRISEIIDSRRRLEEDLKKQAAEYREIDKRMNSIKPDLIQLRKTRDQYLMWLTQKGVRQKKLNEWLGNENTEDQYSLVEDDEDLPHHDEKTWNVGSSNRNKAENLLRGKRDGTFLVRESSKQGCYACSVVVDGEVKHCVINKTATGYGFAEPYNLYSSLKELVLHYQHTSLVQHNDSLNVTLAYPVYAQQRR
pIC50 is defined as minus the log10 of a concentration measured in mol/L.

CCOC(=O)Cn1cc(-c2cccc3cc([C@H](C)NC(=O)c4c(N)nn5cccnc45)n(-c4ccccc4)c(=O)c23)nn1 6.43

[ask] Requested field: pIC50. Item: `C[C@H](NC(=O)c1c(N)nn2cccnc12)c1cc2cccc(-c3cn(CC(=O)O)nn3)c2c(=O)n1-c1ccccc1`
[reply] 6.39

---

system.tested: PI3Kγ (Homo sapiens)
Sequence (P48736 whole entry): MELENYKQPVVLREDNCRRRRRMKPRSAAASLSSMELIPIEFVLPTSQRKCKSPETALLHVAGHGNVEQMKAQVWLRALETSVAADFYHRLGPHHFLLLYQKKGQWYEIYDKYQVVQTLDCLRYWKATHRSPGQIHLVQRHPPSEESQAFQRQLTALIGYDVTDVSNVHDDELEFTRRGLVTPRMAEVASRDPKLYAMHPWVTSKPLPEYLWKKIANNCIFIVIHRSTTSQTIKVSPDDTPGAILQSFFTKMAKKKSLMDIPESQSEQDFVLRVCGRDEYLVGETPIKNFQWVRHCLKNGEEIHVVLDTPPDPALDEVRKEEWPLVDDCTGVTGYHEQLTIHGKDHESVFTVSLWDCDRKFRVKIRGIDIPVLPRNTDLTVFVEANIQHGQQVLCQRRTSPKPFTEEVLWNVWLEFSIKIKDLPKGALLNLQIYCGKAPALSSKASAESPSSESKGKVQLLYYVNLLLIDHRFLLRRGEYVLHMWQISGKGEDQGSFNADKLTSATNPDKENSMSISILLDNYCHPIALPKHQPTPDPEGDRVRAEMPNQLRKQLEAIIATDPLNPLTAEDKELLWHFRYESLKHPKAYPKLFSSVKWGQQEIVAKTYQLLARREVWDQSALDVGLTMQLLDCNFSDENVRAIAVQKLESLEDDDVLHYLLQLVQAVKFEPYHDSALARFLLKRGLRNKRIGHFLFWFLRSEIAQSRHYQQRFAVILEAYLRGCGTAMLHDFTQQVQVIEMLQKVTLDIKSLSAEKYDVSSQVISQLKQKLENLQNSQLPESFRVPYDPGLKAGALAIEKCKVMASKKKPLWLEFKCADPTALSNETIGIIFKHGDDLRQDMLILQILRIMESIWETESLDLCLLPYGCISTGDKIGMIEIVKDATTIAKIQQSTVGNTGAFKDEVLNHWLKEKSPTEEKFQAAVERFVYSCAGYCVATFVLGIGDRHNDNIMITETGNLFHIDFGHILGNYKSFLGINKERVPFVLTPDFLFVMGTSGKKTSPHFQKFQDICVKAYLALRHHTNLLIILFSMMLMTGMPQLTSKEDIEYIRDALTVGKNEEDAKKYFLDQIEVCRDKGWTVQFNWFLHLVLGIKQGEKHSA
measure: pIC50
// pIC50 is dimensionless: -log10 of concentration (M)

Examples from the recorded data:
C[C@H](NC(=O)c1c(N)nn2cccnc12)c1cc2cccc(-c3cn(CCO)nn3)c2c(=O)n1-c1ccccc1 9.06
C[C@H](NC(=O)c1c(N)nn2cccnc12)c1cc2cccc(-c3cn(CC(=O)O)nn3)c2c(=O)n1-c1ccccc1 8.27
CCOC(=O)Cn1cc(-c2cccc3cc([C@H](C)NC(=O)c4c(N)nn5cccnc45)n(-c4ccccc4)c(=O)c23)nn1 9.07

Note: attention shifts to another entry.
[ask] For `COc1cc2cc(C(=O)CCC(=O)OCCn3cc(-c4cccc5cc([C@@H](C)NC(=O)c6c(N)nn7cccnc67)n(-c6ccccc6)c(=O)c45)nn3)sc2cc1OC` , what is its reported pIC50?
[reply] 6.46

---

Please consider the recorded IC50 for UniProt O00329 in what follows.
Sequence (O00329 whole entry, one chain of several): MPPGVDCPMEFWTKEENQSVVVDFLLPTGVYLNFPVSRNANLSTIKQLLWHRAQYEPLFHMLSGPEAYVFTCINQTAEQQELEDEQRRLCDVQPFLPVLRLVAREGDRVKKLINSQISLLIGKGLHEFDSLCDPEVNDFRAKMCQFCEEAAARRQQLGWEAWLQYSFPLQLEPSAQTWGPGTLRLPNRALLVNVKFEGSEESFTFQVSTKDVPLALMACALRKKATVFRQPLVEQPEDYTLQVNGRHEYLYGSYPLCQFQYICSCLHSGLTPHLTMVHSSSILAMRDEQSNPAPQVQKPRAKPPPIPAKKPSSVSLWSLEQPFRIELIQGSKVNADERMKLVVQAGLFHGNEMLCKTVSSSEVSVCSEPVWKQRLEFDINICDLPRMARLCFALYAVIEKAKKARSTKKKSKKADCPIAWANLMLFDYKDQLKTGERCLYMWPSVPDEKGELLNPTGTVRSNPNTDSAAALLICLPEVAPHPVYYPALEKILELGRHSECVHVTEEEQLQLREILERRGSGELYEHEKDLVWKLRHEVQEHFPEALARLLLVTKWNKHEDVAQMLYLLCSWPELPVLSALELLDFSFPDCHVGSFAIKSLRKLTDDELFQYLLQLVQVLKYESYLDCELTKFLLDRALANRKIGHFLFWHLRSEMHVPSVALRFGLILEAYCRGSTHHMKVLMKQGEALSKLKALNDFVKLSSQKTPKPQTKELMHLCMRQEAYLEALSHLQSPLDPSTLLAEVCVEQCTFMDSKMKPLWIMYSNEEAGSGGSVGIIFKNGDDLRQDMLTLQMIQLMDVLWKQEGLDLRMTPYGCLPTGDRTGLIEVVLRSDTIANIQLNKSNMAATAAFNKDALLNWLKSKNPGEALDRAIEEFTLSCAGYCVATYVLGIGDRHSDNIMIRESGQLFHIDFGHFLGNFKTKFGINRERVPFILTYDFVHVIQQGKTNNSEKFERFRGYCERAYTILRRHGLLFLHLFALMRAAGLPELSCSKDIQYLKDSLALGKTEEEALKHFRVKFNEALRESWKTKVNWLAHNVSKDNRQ
Your answer should be a plain number; it is taken to be in nM.

CCOC(=O)Cn1cc(-c2cccc3cc([C@H](C)NC(=O)c4c(N)nn5cccnc45)n(-c4ccccc4)c(=O)c23)nn1 0.381

[ask] Record lookup: for UniProt O00329, what IC50 belongs to `C[C@H](NC(=O)c1c(N)nn2cccnc12)c1cc2cccc(-c3cn(CCO)nn3)c2c(=O)n1-c1ccccc1` ?
[reply] 15.4

[ask] Checklist item: IC50 tested on UniProt O00329, entry `C[C@H](NC(=O)c1c(N)nn2cccnc12)c1cc2cccc(-c3cn(CC(=O)O)nn3)c2c(=O)n1-c1ccccc1` , value?
[reply] 1.36

[ask] Test system UniProt O00329; read-out IC50; what value for `COc1cc2cc(C(=O)CCC(=O)OCCn3cc(-c4cccc5cc([C@@H](C)NC(=O)c6c(N)nn7cccnc67)n(-c6ccccc6)c(=O)c45)nn3)sc2cc1OC` ?
[reply] 1250

---

system.tested: PI3K β (Homo sapiens)
Sequence (P42338 whole entry, one chain of several): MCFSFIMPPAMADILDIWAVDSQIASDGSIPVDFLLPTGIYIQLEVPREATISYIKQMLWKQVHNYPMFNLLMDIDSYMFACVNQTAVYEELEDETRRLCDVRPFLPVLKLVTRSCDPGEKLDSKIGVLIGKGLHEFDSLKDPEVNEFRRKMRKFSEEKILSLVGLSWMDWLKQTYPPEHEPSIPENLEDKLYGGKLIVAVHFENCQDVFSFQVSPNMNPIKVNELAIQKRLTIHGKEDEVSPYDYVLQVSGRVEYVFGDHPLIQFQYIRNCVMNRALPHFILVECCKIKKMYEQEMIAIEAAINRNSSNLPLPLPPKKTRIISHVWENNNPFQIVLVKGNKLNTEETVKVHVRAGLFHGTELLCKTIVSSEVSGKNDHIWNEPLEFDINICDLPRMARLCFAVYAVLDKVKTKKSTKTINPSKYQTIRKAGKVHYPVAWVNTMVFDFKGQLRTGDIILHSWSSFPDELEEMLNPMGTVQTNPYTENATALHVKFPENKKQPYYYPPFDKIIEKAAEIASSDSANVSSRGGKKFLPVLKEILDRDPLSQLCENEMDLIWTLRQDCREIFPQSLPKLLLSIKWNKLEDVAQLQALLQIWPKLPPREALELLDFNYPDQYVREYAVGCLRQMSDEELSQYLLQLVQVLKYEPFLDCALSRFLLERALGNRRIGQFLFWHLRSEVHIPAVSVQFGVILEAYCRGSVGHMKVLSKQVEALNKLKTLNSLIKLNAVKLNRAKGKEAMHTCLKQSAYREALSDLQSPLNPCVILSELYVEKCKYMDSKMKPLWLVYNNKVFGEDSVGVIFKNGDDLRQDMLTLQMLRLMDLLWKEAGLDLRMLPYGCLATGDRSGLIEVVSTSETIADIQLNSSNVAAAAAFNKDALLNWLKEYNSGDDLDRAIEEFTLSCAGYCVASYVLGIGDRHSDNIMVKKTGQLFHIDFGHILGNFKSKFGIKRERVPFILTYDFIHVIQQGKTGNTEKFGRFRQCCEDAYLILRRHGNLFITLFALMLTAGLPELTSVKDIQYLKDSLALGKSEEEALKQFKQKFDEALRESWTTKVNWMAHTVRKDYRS
measure: IC50 (nM)
Unit nM implied. Number only.

C[C@H](NC(=O)c1c(N)nn2cccnc12)c1cc2cccc(-c3cn(CCO)nn3)c2c(=O)n1-c1ccccc1 548
C[C@H](NC(=O)c1c(N)nn2cccnc12)c1cc2cccc(-c3cn(CC(=O)O)nn3)c2c(=O)n1-c1ccccc1 312

Now turn to the next compound.
[ask] Give IC50 (PI3K β (Homo sapiens)) of the following compound: `CCOC(=O)Cn1cc(-c2cccc3cc([C@H](C)NC(=O)c4c(N)nn5cccnc45)n(-c4ccccc4)c(=O)c23)nn1`
[reply] 374

Data origin: patent US20250281491A1
